- measurement-description: S. cerevisiae growth inhibition in permissive medium (OD615), pilot counter-assay for S. cerevisiae lifespan shortening project, permissive growth control (AID 705)
- experimental-setup: OD615, 24 h, at 10 µM, active compounds read high
Answer each item with its documented growth inhibition.
All answers are understood in %, so give the number only.

Give the measured growth inhibition for O=C1c2ccccc2C(Nc2ccc3c(c2)OCCO3)N1Cc1ccc2c(c1)OCO2 (configuration not stated)
-4.37

// Input: Cc1oc(-c2cccc(Cl)c2)nc1CN1CCC(C(=O)N2CCN(c3ccccc3F)CC2)CC1 . Output its growth inhibition only.
0.125

Please look at this compound and report its growth inhibition: CCCCS(=O)(=O)NC1=NCN(CCOC(=O)c2ccccc2)CN1
-8.81

Quick one: give measured growth inhibition for CCOC(=O)N1CCC(NC(=O)c2cc3c(=O)n(C)c4ccccc4c3n2C)CC1
-11.7

Tell us which growth inhibition value is on record for O=C(c1cnc2n(c1=O)CCS2)N1CCc2ccccc21
-3.25

Look up growth inhibition of CCOC(=O)C1C(=O)N(C(=O)c2cncc(Br)c2)CC1c1ccccc1 (configuration not stated) and report it.
-0.835

State its growth inhibition: Cc1c(C(=O)O)oc2ccc(S(=O)(=O)N3CCCCC3C(=O)O)cc12 (configuration not stated)
4.47

Specify measured growth inhibition for Cc1ccc(-n2ncc3c(=O)[nH]c(SC(C)C)nc32)cc1 .
-3.77

Annotate the compound CCOC(=O)Cn1c(=O)c(-c2ccccc2N)nc2ccccc21 with its measured growth inhibition.
2.3

Provide only the value of recorded growth inhibition for COC(=O)CSc1nc(C)cc(Oc2ccccc2)n1
-8.61

Respond only with growth inhibition recorded for Cc1cccc(Cn2c(SCC(=O)Nc3ccccc3)nc3c2c(=O)[nH]c(=O)n3C)c1
-12.4

Look up and state reported growth inhibition for C=CCn1c(COc2ccc(CC)cc2)nnc1SC/C(O)=C(\C#N)c1nc2ccccc2[nH]1
1.15

Quickly give me recorded growth inhibition for O=C(NCc1ccco1)N1c2ccccc2Sc2ccccc21
-12.9

Return the recorded growth inhibition value; entry: O=C(Cn1c(=O)oc2cc(S(=O)(=O)N3CCCCCC3)ccc21)NC1CCCCCCC1
-9.87

Answer with the recorded growth inhibition for the compound listed here: O=C(Cn1c(=O)sc2ccccc21)NCCOc1ccccc1F
7.09

Quote growth inhibition reported for CCCOc1ccc(N2C(=O)CC(N3CCC(O)(c4cccc(C(F)(F)F)c4)CC3)C2=O)cc1 (configuration not stated) please.
1.01

State, in one line, measured growth inhibition of O=C(NCCSc1c[nH]c2ccccc12)c1ccc(Br)o1
-10.7

Given CCc1ccc(N2CC(C(=O)OCC(=O)NC3CCS(=O)(=O)C3)CC2=O)cc1 (configuration not stated) , respond with its growth inhibition.
-17

Input O=C(c1ccco1)N1CCN(C(=O)C2CC(c3ccc(F)cc3)=NO2)CC1 (configuration not stated) , output reported growth inhibition.
-1.38

Look up growth inhibition of O=C(CN1CCN(Cc2ccccc2)CC1)NCC1COc2ccccc2O1 (configuration not stated) and report it.
-1.31

Dear colleague, please send me the reported growth inhibition for COc1ccc(C2C(C(=O)NCc3cccnc3)c3ccccc3C(=O)N2C)cc1OC (configuration not stated) when you can.
-16.2

Report growth inhibition, nothing else, for this compound: CCOC(=O)c1ccc2[nH]c(C)cc(=O)c2c1
-1.86

Provide one value: measured growth inhibition of CSc1ccc(C2NC(=O)c3c(sc4c3CCN(C)C4)N2)cc1 (configuration not stated)
-13.2

Report measured growth inhibition; entry is COc1ccc(OCCSc2nc3ccccc3n2CC(=O)O)cc1
-2.19

Read the entry Cc1ccc(-c2nc(CS(=O)CC(=O)NCc3ccccn3)c(C)o2)cc1 (configuration not stated) and write its reported growth inhibition.
-5.48

Tell me measured growth inhibition for Clc1ss/c(=N\c2ccccn2)c1Cl please.
3.12

Read off the recorded growth inhibition for CC1CCCC(N2CCN(C(=O)c3ccc(F)cc3)CC2)C1 (configuration not stated)
-0.99

Using known records, supply growth inhibition for CCN1CCCC1CNC(=O)Cn1cc2c(n1)CCC(C)C2 (configuration not stated)
-3.58

Dear colleague, please send me the reported growth inhibition for CCOC(=O)C(CC)Sc1ncnc2nc[nH]c12 (configuration not stated) when you can.
-11

Answer with reported growth inhibition of CCCCN(C)C(=O)C(Cc1ccccc1)NS(=O)(=O)c1ccc2c(c1)CCC(=O)N2 (configuration not stated)
-18.6

Identify growth inhibition associated with the compound c1ccc(-n2ncc3c(NC4CCCCCC4)ncnc32)cc1
-7.69

Give me measured growth inhibition, please, for this compound: NC(=O)C1CCN(C(=O)c2cc3n(n2)C(C(F)(F)F)CC(c2ccco2)N3)CC1 (configuration not stated)
-7

Please list growth inhibition recorded for the compound Cn1cnc2cc(NC(=O)c3ccc(Cl)cc3)ccc21
0.595

Respond only with growth inhibition recorded for CCCCC(NS(=O)(=O)c1ccc(OC)cc1)C(=O)O (configuration not stated)
-19.3

Note growth inhibition for the compound shown: Cc1cc(C)n2nc(S(=O)(=O)N(C)c3ccccc3)nc2n1
-16.1

Tell me measured growth inhibition for CCC(CC)C(=O)Nc1cc(=O)n(C)c(=O)n1C please.
-3.07

Hello, please tell me recorded growth inhibition for this one: Cc1cccc(N2CCN(c3nc4ccc(Cl)cc4n4cnnc34)CC2)c1C
-17.7

Determine from records and report growth inhibition for CC1Cn2c(nnc2-c2ccccc2O)S1 (configuration not stated)
-13.6

Return value of growth inhibition for input O=C1c2ccccc2C(=O)N1C/C=C/CN1C(=O)c2ccccc2C1=O , no commentary.
2.25

Could you please provide reported growth inhibition for CC(=O)Nc1ccc(S(=O)(=O)Nc2nc3ccccc3nc2Sc2nncn2C)cc1 ? Thanks!
1.94

Return growth inhibition for the following compound: CCOc1ccc(N(CC(=O)Nc2cccc(Cl)c2)S(=O)(=O)c2c(C)noc2C)cc1
-14.8

Quick one: give measured growth inhibition for Fc1ccccc1N1CCN(C2CCN(Cc3c[nH]c4ccccc34)CC2)CC1
-1.12
